system: Mycobacterium tuberculosis Erdman (autoluminescent); assay: total FIC50 (Loewe) at 50% inhibition, three-drug combination (log2); higher = more antagonistic; conditions: in vitro model: butyrate; time point: terminal (~4-5 doublings, model-specific)
Please use Condition met whenever total FIC50 is not below 0.2, and Condition not met whenever it is.

## Task Is the recorded value of total FIC50 equal to or greater than 0.2 for this molecule? COc1nc2ccc(Br)cc2cc1[C@@H](c1ccccc1)[C@@](O)(CCN(C)C)c1cccc2ccccc12 [bedaquiline] + CC(C)/N=c1\cc2n(-c3ccc(Cl)cc3)c3ccccc3nc-2cc1Nc1ccc(Cl)cc1 [clofazimine] + COc1c(N2C[C@@H]3CCCN[C@@H]3C2)c(F)cc2c(=O)c(C(=O)O)cn(C3CC3)c12 [moxifloxacin]
## Result Condition not met

## Task // repeat for NNC(=O)c1ccncc1 [isoniazid] + CC(=O)NC[C@H]1CN(c2ccc(N3CCOCC3)c(F)c2)C(=O)O1 [linezolid] + COc1c(N2C[C@@H]3CCCN[C@@H]3C2)c(F)cc2c(=O)c(C(=O)O)cn(C3CC3)c12 [moxifloxacin] and report
## Result Condition met

## Task // repeat for CC[C@@H](CO)NCCN[C@@H](CC)CO [ethambutol] + COc1c(N2C[C@@H]3CCCN[C@@H]3C2)c(F)cc2c(=O)c(C(=O)O)cn(C3CC3)c12 [moxifloxacin] + CO[C@H]1/C=C/O[C@@]2(C)Oc3c(C)c(O)c4c(O)c(c(/C=N/N5CCN(C6CCCC6)CC5)c(O)c4c3C2=O)NC(=O)/C(C)=C\C=C\[C@H](C)[C@H](O)[C@@H](C)[C@@H](O)[C@@H](C)[C@H](OC(C)=O)[C@@H]1C [rifapentine] and report
## Result Condition met

## Task // repeat for COc1nc2ccc(Br)cc2cc1[C@@H](c1ccccc1)[C@@](O)(CCN(C)C)c1cccc2ccccc12 [bedaquiline] + CC(=O)NC[C@H]1CN(c2ccc(N3CCOCC3)c(F)c2)C(=O)O1 [linezolid] + COc1c(N2C[C@@H]3CCCN[C@@H]3C2)c(F)cc2c(=O)c(C(=O)O)cn(C3CC3)c12 [moxifloxacin] and report
## Result Condition met

## Task // repeat for CC(=O)NC[C@H]1CN(c2ccc(N3CCOCC3)c(F)c2)C(=O)O1 [linezolid] + COc1c(N2C[C@@H]3CCCN[C@@H]3C2)c(F)cc2c(=O)c(C(=O)O)cn(C3CC3)c12 [moxifloxacin] + NC(=O)c1cnccn1 [pyrazinamide] and report
## Result Condition not met

Here's the next entry for you.
## Task Is the recorded value of total FIC50 equal to or greater than 0.2 for this molecule? COc1nc2ccc(Br)cc2cc1[C@@H](c1ccccc1)[C@@](O)(CCN(C)C)c1cccc2ccccc12 [bedaquiline] + O=[N+]([O-])c1cn2c(n1)OC[C@@H](OCc1ccc(OC(F)(F)F)cc1)C2 [pretomanid] + CO[C@H]1/C=C/O[C@@]2(C)Oc3c(C)c(O)c4c(O)c(c(/C=N/N5CCN(C)CC5)c(O)c4c3C2=O)NC(=O)/C(C)=C\C=C\[C@H](C)[C@H](O)[C@@H](C)[C@@H](O)[C@@H](C)[C@H](OC(C)=O)[C@@H]1C [rifampicin]
## Result Condition met

----------
tested on: Mycobacterium tuberculosis Erdman (autoluminescent); assay: Einf, fitted maximum growth inhibition of three-drug combination (fraction); higher = stronger maximal inhibition; conditions: in vitro model: dormancy (butyrate + nitrate, low O2); time point: constant (~7 days, model-specific)
Quick reference for Einf among some molecules

## Task Look at this molecule and give its reported Einf. COc1nc2ccc(Br)cc2cc1[C@@H](c1ccccc1)[C@@](O)(CCN(C)C)c1cccc2ccccc12 [bedaquiline] + CC(=O)NC[C@H]1CN(c2ccc(N3CCOCC3)c(F)c2)C(=O)O1 [linezolid] + CO[C@H]1/C=C/O[C@@]2(C)Oc3c(C)c(O)c4c(O)c(c(/C=N/N5CCN(C6CCCC6)CC5)c(O)c4c3C2=O)NC(=O)/C(C)=C\C=C\[C@H](C)[C@H](O)[C@@H](C)[C@@H](O)[C@@H](C)[C@H](OC(C)=O)[C@@H]1C [rifapentine]
## Result 0.933

## Task // repeat for NNC(=O)c1ccncc1 [isoniazid] + COc1c(N2C[C@@H]3CCCN[C@@H]3C2)c(F)cc2c(=O)c(C(=O)O)cn(C3CC3)c12 [moxifloxacin] + CO[C@H]1/C=C/O[C@@]2(C)Oc3c(C)c(O)c4c(O)c(c(/C=N/N5CCN(C6CCCC6)CC5)c(O)c4c3C2=O)NC(=O)/C(C)=C\C=C\[C@H](C)[C@H](O)[C@@H](C)[C@@H](O)[C@@H](C)[C@H](OC(C)=O)[C@@H]1C [rifapentine] and report
## Result 0.866

## Task // repeat for CC[C@@H](CO)NCCN[C@@H](CC)CO [ethambutol] + NNC(=O)c1ccncc1 [isoniazid] + NC(=O)c1cnccn1 [pyrazinamide] and report
## Result 0.822

## Task // repeat for CC(C)/N=c1\cc2n(-c3ccc(Cl)cc3)c3ccccc3nc-2cc1Nc1ccc(Cl)cc1 [clofazimine] + CC[C@@H](CO)NCCN[C@@H](CC)CO [ethambutol] + NC(=O)c1cnccn1 [pyrazinamide] and report
## Result 0.826

## Task // repeat for CC(C)/N=c1\cc2n(-c3ccc(Cl)cc3)c3ccccc3nc-2cc1Nc1ccc(Cl)cc1 [clofazimine] + CC[C@@H](CO)NCCN[C@@H](CC)CO [ethambutol] + CC(=O)NC[C@H]1CN(c2ccc(N3CCOCC3)c(F)c2)C(=O)O1 [linezolid] and report
## Result 0.783

## Task // repeat for COc1nc2ccc(Br)cc2cc1[C@@H](c1ccccc1)[C@@](O)(CCN(C)C)c1cccc2ccccc12 [bedaquiline] + CC(C)/N=c1\cc2n(-c3ccc(Cl)cc3)c3ccccc3nc-2cc1Nc1ccc(Cl)cc1 [clofazimine] + CC[C@@H](CO)NCCN[C@@H](CC)CO [ethambutol] and report
## Result 0.82

## Task // repeat for CC(C)/N=c1\cc2n(-c3ccc(Cl)cc3)c3ccccc3nc-2cc1Nc1ccc(Cl)cc1 [clofazimine] + NNC(=O)c1ccncc1 [isoniazid] + CO[C@H]1/C=C/O[C@@]2(C)Oc3c(C)c(O)c4c(O)c(c(/C=N/N5CCN(C)CC5)c(O)c4c3C2=O)NC(=O)/C(C)=C\C=C\[C@H](C)[C@H](O)[C@@H](C)[C@@H](O)[C@@H](C)[C@H](OC(C)=O)[C@@H]1C [rifampicin] and report
## Result 0.876

Moving on to another molecule below.
## Task Look at this molecule and give its reported Einf. COc1nc2ccc(Br)cc2cc1[C@@H](c1ccccc1)[C@@](O)(CCN(C)C)c1cccc2ccccc12 [bedaquiline] + CC(C)/N=c1\cc2n(-c3ccc(Cl)cc3)c3ccccc3nc-2cc1Nc1ccc(Cl)cc1 [clofazimine] + O=[N+]([O-])c1cn2c(n1)OC[C@@H](OCc1ccc(OC(F)(F)F)cc1)C2 [pretomanid]
## Result 0.942
